Test system: PPARa:RXRa (NR concentration 270 nM, RXRa partner concentration 90 nM)
protocolSummary: PBM binding z-score (relative to random genomic background probes); higher = stronger binding; sequences stand for … in GC…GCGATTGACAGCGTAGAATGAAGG
PBM binding z-score values, listed per item
recordedMetric: PBM binding z-score

- seqText: "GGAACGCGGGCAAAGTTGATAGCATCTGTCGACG"
  value: 1.67
- seqText: "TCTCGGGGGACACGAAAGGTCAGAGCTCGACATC"
  value: 5.03
- seqText: "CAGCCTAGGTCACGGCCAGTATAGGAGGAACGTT"
  value: 4.72
- seqText: "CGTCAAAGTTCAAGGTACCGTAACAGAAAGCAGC"
  value: 4.61
- seqText: "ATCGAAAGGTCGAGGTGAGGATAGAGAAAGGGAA"
  value: 4.44
- seqText: "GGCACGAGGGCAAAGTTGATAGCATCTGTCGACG"
  value: 3.29
- seqText: "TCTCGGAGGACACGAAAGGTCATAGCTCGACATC"
  value: 4.49
- seqText: "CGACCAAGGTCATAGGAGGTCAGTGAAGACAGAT"
  value: 5.7
- seqText: "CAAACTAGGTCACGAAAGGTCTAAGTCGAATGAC"
  value: 5.52
- seqText: "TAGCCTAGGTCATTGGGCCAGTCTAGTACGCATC"
  value: 3.41
- seqText: "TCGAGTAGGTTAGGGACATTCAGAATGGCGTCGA"
  value: 0.561
- seqText: "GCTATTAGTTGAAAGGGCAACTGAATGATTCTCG"
  value: 2.51
- seqText: "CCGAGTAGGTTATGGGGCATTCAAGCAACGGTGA"
  value: 2.1
- seqText: "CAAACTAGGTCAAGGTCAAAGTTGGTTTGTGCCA"
  value: 6.04
- seqText: "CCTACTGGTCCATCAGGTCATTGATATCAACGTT"
  value: 1.88
- seqText: "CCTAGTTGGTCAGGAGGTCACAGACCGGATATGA"
  value: 4.41
- seqText: "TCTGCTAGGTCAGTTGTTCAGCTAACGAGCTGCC"
  value: 1
- seqText: "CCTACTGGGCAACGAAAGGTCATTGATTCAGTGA"
  value: 4.2
- seqText: "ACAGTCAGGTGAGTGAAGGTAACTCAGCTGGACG"
  value: -0.317

----------
System: RARg:RXRa (NR concentration 270 nM, RXRa partner concentration 90 nM)
protocolSummary: PBM binding z-score (relative to random genomic background probes); higher = stronger binding; sequences stand for … in GC…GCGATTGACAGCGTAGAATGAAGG
# cutoff 2 applies to PBM binding z-score; >= gives True, < gives False

- seqText: "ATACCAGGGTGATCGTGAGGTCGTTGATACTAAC"
  cat: "True"
- seqText: "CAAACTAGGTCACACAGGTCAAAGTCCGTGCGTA"
  cat: "True"
- seqText: "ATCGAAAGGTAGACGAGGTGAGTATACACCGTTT"
  cat: "False"
- seqText: "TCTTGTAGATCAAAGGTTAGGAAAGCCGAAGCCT"
  cat: "False"
- seqText: "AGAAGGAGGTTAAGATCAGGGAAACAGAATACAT"
  cat: "False"
- seqText: "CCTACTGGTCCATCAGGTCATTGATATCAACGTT"
  cat: "False"
- seqText: "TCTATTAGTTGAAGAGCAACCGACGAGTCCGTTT"
  cat: "False"
- seqText: "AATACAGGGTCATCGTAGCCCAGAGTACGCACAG"
  cat: "True"
- seqText: "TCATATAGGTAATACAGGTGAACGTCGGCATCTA"
  cat: "False"
- seqText: "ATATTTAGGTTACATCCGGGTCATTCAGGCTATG"
  cat: "True"
- seqText: "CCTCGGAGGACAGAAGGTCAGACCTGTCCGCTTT"
  cat: "True"
- seqText: "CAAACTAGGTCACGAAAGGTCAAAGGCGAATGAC"
  cat: "True"
- seqText: "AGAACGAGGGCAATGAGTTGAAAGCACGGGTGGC"
  cat: "False"
- seqText: "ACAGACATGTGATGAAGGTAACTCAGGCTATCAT"
  cat: "False"
- seqText: "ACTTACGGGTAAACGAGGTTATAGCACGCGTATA"
  cat: "False"
- seqText: "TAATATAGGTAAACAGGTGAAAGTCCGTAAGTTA"
  cat: "False"
